# ASSAY_TARGET: T1, human IL-6 (human, UniProt P05231 30-212)
# T1 construct: also called interleukin-6
# T1 sequence (P05231 30-212 limits assumed): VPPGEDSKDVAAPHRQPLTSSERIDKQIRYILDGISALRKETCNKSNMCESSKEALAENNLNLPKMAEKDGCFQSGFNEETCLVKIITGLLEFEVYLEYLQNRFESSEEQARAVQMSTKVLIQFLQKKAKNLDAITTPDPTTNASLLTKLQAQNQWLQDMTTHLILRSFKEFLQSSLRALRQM
# MEASUREMENT_DESCRIPTION: SPR (Biacore T200), purified antibody captured on Protein A, IL-6 flowed over, 37 C
# Experimental: Antibodies were captured on a Protein A chip (GE) by injecting 1:20 cell supernatant dilutions at 10 μL/min for 60 seconds. […] The sensor chip was regenerated by a 60 seconds injection of 10 mM Glycine pH 1.7 at the flow rate of […]. […] For this setup, 1 μg/mL of purified antibody was injected over a Protein A chip at 10 μL/min for 25 seconds. […] The sensor chip was regenerated by a 60 seconds injection of 10 mM Glycine pH 1.7 at flow rate of 50 μL/min. […]
Reported koff is given for each of the following binders.
Write the numeric value and follow it with the unit.

Could you tell me which koff is on file for anti-IL-6 antibody, heavy chain T63Q, G66D / light chain WT (antibody, human IgG1, V domains shown, Derived as m2; Engineered human IgG1) VH: EVQLVESGGGLVQPGGSLRLSCAASGFTFSPFAMSWVRQAPGKGLEWVAKISPGGSWTYYSDQVTDRFTFSLDTSKSTAYLQMNSLRAEDTAVYYCARQLWGYYALDIWGQGTLVTVSS VL: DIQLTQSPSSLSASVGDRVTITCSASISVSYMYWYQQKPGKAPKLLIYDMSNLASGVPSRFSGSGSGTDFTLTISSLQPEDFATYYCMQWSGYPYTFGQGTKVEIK ?
0.000251 s⁻¹
